Attribute measured: melting point

In the examples that follow, each entry is paired with its recorded melting point.
| Structure smiles string | Attribute measured | Recorded measurement |
| --- | --- | --- |
| COCCn1c(C)c(C)s/c1=N\C(=O)c1cccc(C(F)(F)F)c1 | melting point | 64 to 66 °C |
| CCOc1ccc(OCC)c(C(=O)/N=c2\sc(C(C)(C)C)c(C)n2CC2CC2)c1 | melting point | 97 to 99 °C |
| Cc1s/c(=N\C(=O)c2cc(F)c(Cl)cc2Cl)n(CC2CC2)c1C | melting point | 59 to 60 °C |

Short answer for `COc1ccc(Cl)cc1C(=O)/N=c1\sc(C(C)(C)C)c(C)n1CC1CC1` : melting point was 98 to 100 °C

The reported melting point of the compound `O=C(/N=c1\ccccn1CCC1CC1)c1cccc(C(F)(F)F)c1F` was 56 to 58 °C

Consider `CCn1c(C)c(C(C)(C)C)s/c1=N\C(=O)c1ccc(F)cc1Br` . Its measured melting point is 99 to 100 °C

The compound listed as `COCCn1c(C)c(C(C)(C)C)s/c1=N\C(=O)c1cccc(C(F)(F)F)c1` has a reported melting point of 172 to 173 °C

For reference, reported melting point for `Cc1cccc(C(=O)/N=c2\cc(C(C)(C)C)n(C)n2CC2CC2)c1I` stands at 147 to 148 °C

Reported melting point ( `CCCc1c(C(=O)/N=c2\sc(C(C)(C)C)c(C)n2CC2CC2)cnn1-c1ccccc1` ) = 104 to 105 °C

* * *

# Tested on: human CB2 receptor (Homo sapiens, UniProt P34972)
# Construct: expressed in transfected cells
# Sequence (P34972 whole entry): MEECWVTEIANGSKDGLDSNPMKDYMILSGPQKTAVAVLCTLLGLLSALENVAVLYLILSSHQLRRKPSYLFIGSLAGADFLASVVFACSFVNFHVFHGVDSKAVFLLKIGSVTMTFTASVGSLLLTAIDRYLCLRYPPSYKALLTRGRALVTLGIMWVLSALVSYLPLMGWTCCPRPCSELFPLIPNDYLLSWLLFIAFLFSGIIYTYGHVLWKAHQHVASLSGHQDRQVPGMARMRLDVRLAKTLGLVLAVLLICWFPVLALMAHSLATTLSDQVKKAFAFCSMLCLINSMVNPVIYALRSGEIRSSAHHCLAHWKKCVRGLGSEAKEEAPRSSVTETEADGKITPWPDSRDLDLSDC
# Assay comment: Human CB2 receptor binding inhibition test ([3H]CP-55,940, CHO membrane fractions)
# Condition: [3H]CP-55,940, membrane fractions of CHO cells stably expressing human CB2 receptor, 25° C., 2 hours; read-out: CB2 IC50 (Inhibition of binding to human CB2 receptor)
pIC50: −log10 of the molar value.
Classify by measured pIC50: Y if it is equal to or exceeds 8, N if it is smaller.

Record excerpt, results attached:
| Structure smiles string | Class assignment |
| --- | --- |
| CCn1c(C)c(C(C)(C)C)s/c1=N\C(=O)c1ccccc1OC(F)(F)F | N |
| Cc1c(C(C)(C)C)s/c(=N\C(=O)c2cccc3cccnc23)n1CC1CC1 | Y |

In: Evaluate `Cc1c(C(C)(C)C)s/c(=N\C(=O)c2c(C(F)(F)F)ccc(Cl)c2F)n1CC1CC1` : pIC50 at minimum 8?
Out: Y

* * *

Attribute measured: melting point

Example entries and their recorded answers appear below.
| Structure smiles string | Attribute measured | Recorded measurement |
| --- | --- | --- |
| COc1ccc(C(F)(F)F)cc1C(=O)/N=c1\sc(C(C)(C)C)c(C)n1CC1CC1 | melting point | 175 to 177 °C |
| Cc1s/c(=N\C(=O)CC2CCCC2)n(CC2CC2)c1C | melting point | 108 to 109 °C |
| O=C(/N=c1\ccc(C(F)(F)F)cn1CC1CC1)c1ccccc1C(F)(F)F | melting point | 93 to 93.5 °C |

Record `CCn1c(C)c(C(C)(C)C)s/c1=N\C(=O)c1cc(Cl)ccc1Cl` . Reported melting point: 127 to 128 °C

For record `Cc1c(C(C)(C)C)s/c(=N\C(=O)c2ccccc2C(C)C)n1CC1CC1` the listed melting point is 168 to 169 °C

Reported melting point of `Cc1cs/c(=N\C(=O)c2cccc(C(F)(F)F)c2F)n1CC1CC1` : 109 to 111 °C

`Cc1c(C(C)(C)C)s/c(=N\C(=O)c2cccc(N3CCN(C)CC3)c2)n1CC1CC1` has a reported melting point of 126 to 128 °C

Input `Cc1c(C(C)(C)C)s/c(=N\C(=O)c2cc(Br)ccc2F)n1CC1CC1` . Output melting point: 113 to 114 °C

Recorded result, `Cc1c/c(=N\C(=O)c2cccc(C(F)(F)F)c2F)n(CCC2CC2)n1C` , melting point: 97 to 98 °C

Memo: `Cc1c(C(C)(C)C)s/c(=N\C(=O)c2ccc(Cl)c(C(F)(F)F)c2)n1CC1CC1` , reported melting point: 122 to 124 °C

// melting point lookup, compound = `Cc1c(C(C)(C)C)s/c(=N\C(=O)c2ccc(C#N)cc2)n1CC1CC1` , result: 125 to 126 °C

Consider `Cc1c(C(C)(C)C)s/c(=N\C(=O)c2cc(C(F)(F)F)ccc2OC(C)C)n1CC1CC1` . Its measured melting point is 106 to 108 °C
